System: human bronchial epithelial cells, CFTR corrector, plate reader
Experiment: rescue of ΔF508 CFTR function, airway epithelium – human bronchial epithelial cells, plate reader, cherry-pick, two tests, dose response (AID 743267)
Conditions: measured here: test 1 replicate run
Can you tell me log10 AC50 for the items I'm about to list?
In our notation, the value equals log10 of AC50 in µM.

## Input Return the recorded log10 AC50 value; entry: "COc1ccc(NC(=O)N(C)C[C@@H]2Oc3cc(C#CCC(C)C)ccc3S(=O)(=O)N([C@H](C)CO)C[C@@H]2C)cc1"
## Output 1.20

## Input Report log10 AC50, nothing else, for this molecule: "C[C@@H]1CN([C@H](C)CO)S(=O)(=O)c2ccc(C#CC3CC3)cc2O[C@H]1CN(C)Cc1ccccn1"
## Output 1.07

## Input Please give the documented log10 AC50 of "COc1cccc(-c2cccc(-c3nc(C(=O)NCC(F)(F)F)cc4c3[C@H](CCO)N([S@@](=O)C(C)(C)C)C4)c2)c1"
## Output 0.44

## Input Query log10 AC50 for "COc1ccc(S(=O)(=O)N2CC[C@@H]3[C@@H](CO)N(C)c4ccc(-c5ccc(F)cc5)cc4[C@@H]32)cc1"
## Output 1.11

## Input Query log10 AC50 for COc1cccc(-c2ccc(C3[C@@H]4CN(S(=O)(=O)c5cccc(OC)c5)C[C@H]3N4)cc2)c1 (stereo not given in full)
## Output 1.13

## Input For the molecule "C[C@H](CO)N1C[C@H](C)[C@@H](CN(C)Cc2ccc(Cl)c(Cl)c2)Oc2ccc(NC(=O)Nc3ccc(C(F)(F)F)cc3)cc2CC1=O" , report log10 AC50.
## Output 1.20

## Input Provide log10 AC50 value for the following molecule: "CN1c2ccc(-c3ccc(F)cc3)cc2[C@H]2[C@H](CCN2S(=O)(=O)c2cccc(F)c2)[C@@H]1CO"
## Output 0.88

## Input Return log10 AC50 for the following molecule: "C[C@H]1CCCCO[C@@H](CN(C)C(=O)C2CCCCC2)[C@@H](C)CN([C@@H](C)CO)C(=O)c2cc(NC(=O)Nc3ccc(C(F)(F)F)cc3)ccc2O1"
## Output 1.20

## Input Indicate the recorded log10 AC50 value for this molecule: "COc1ccc(-c2ccc3c(c2)[C@H]2[C@H](CCN2S(=O)(=O)c2ccc(OC)cc2)[C@@H](CO)N3C)cc1"
## Output 0.98

## Input Give the reported value of log10 AC50 for this record: "C[C@@H]1CN([C@H](C)CO)S(=O)(=O)c2ccc(-c3ccccc3)cc2O[C@H]1CN(C)Cc1ccccn1"
## Output 1.20

## Input Read off the recorded log10 AC50 for "O=C(C1CCCC1)N1CC(=O)N2[C@H](CO)[C@@H](c3ccc(-c4ccccc4F)cc3)[C@@H]2C1"
## Output 0.65

## Input // Input: "C[C@@H]1CN([C@@H](C)CO)C(=O)Cc2cc(NC(=O)Nc3cccc4ccccc34)ccc2O[C@@H]1CN(C)Cc1ccc(Cl)c(Cl)c1" . Output its log10 AC50 only.
## Output 0.33

## Input State its log10 AC50 for this molecule: "C[C@H](CO)N1C[C@H](C)[C@H](CN(C)C(=O)NC2CCCCC2)Oc2cc(C#Cc3ccc(F)cc3)ccc2S1(=O)=O"
## Output 0.88

## Input Give the value of log10 AC50 reported for the following: "CN1C(=O)c2cc(NC(=O)c3ccc(Cl)cc3)ccc2OC[C@@H]2O[C@H](CC(=O)NCc3cccc(F)c3)CC[C@H]21"
## Output 0.66

## Input Tell us which log10 AC50 value is on record for "COc1ccc(S(=O)(=O)N2CC[C@@H]3[C@@H](CO)Nc4ccc(-c5cccc(C#N)c5)cc4[C@@H]32)cc1"
## Output 1.20

## Input Read off the recorded log10 AC50 for "CN1c2ccc(-c3ccc(F)cc3)cc2[C@H]2[C@H](CCN2S(=O)(=O)c2cccc(F)c2)[C@H]1CO"
## Output 0.64

## Input Fill in reported log10 AC50 for this entry: "CS(=O)(=O)N1CC(=O)N2[C@H](C1)[C@H](c1ccc(C#Cc3ccc(F)cc3)cc1)[C@@H]2CO"
## Output 1.38

## Input Annotate the molecule "O=C(Cc1ccccc1)N1CC(=O)N2[C@H](CO)[C@@H](c3ccc(-c4ccccc4)cc3)[C@@H]2C1" with its measured log10 AC50.
## Output 1.39

## Input Let me know recorded log10 AC50 for "COc1ccc(-c2ccc3c(c2)[C@H]2[C@H](CCN2S(=O)(=O)c2ccc(OC)cc2)[C@@H](CO)N3)cc1" , thanks.
## Output 0.87

## Input Please list log10 AC50 recorded for the molecule "C[C@@H]1CN([C@H](C)CO)C(=O)c2cc(NS(=O)(=O)c3ccc(Cl)cc3)ccc2O[C@@H]1CN(C)Cc1ccc(-c2ccccc2)cc1"
## Output 1.67

## Input Find the measured log10 AC50 of "CO[C@@H](CN(C)S(=O)(=O)c1ccc(C)cc1)[C@H](C)CN([C@@H](C)CO)S(=O)(=O)c1cccc(Cl)c1" and report it.
## Output 0.74

## Input Could you please provide reported log10 AC50 for "CCS(=O)(=O)N1CC(=O)N2[C@H](CO)[C@@H](c3ccc(C#CCC(C)C)cc3)[C@@H]2C1" ? Thanks!
## Output -1.17

## Input Tell me log10 AC50 reported for "C[C@@H]1CN([C@H](C)CO)S(=O)(=O)c2ccc(-c3ccc(C#N)cc3)cc2O[C@H]1CN(C)Cc1ccccn1"
## Output 1.20

## Input Answer with the recorded log10 AC50 of "COC(=O)C[C@@H]1CC[C@@H]2[C@H](COc3ccc(NC(=O)c4cc(C)on4)cc3C(=O)N2C)O1" only.
## Output 0.56

## Input Read off the recorded log10 AC50 for "COc1ccc(S(=O)(=O)Nc2ccc3c(c2)C(=O)N([C@@H](C)CO)C[C@@H](C)[C@H](CN(C)Cc2ccc(Oc4ccccc4)cc2)O3)cc1"
## Output -0.89

## Input Report measured log10 AC50; entry is "COC(=O)C[C@@H]1CC[C@@H]2[C@H](COc3ccc(NC(=O)c4ccc(C(F)(F)F)cc4)cc3C(=O)N2C)O1"
## Output 1.28

## Input Specify measured log10 AC50 for "COc1cccc(S(=O)(=O)N(C)C[C@@H]2Oc3cc(C4=CCCC4)ccc3S(=O)(=O)N([C@H](C)CO)C[C@H]2C)c1" .
## Output 1.20
